Origin of measurements: ChEMBL document CHEMBL1201862

Exercise: for every item that follows, state its recorded AC50.

Request - read-out AC50 | tested on Cytochrome P450 2D6 (Homo sapiens, UniProt P10635) | compound Cc1cnnn1-c1ccc(C(=O)CCl)cc1
0.0794 µM (inconclusive)

GET /values?readout=AC50&system=Cytochrome P450 2D6 (Homo sapiens, UniProt P10635)&item= CCOc1ccc(C(=O)Nc2cnn(Cc3ccc(Cl)c(Cl)c3)c2)cc1
15.8 µM (inconclusive)

Requested read-out AC50, target or system Cytochrome P450 2D6 (Homo sapiens, UniProt P10635), entry O=C(CCCn1c(=S)[nH]c2cc3c(cc2c1=O)OCO3)N1CCN(c2ccccc2)CC1;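 note: CYP2D6 member of a cytochrome P450 panel assay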
1.26 µM (inconclusive)

---

target: UniProtKB O96028; type: biochemical
Sequence (O96028 whole entry): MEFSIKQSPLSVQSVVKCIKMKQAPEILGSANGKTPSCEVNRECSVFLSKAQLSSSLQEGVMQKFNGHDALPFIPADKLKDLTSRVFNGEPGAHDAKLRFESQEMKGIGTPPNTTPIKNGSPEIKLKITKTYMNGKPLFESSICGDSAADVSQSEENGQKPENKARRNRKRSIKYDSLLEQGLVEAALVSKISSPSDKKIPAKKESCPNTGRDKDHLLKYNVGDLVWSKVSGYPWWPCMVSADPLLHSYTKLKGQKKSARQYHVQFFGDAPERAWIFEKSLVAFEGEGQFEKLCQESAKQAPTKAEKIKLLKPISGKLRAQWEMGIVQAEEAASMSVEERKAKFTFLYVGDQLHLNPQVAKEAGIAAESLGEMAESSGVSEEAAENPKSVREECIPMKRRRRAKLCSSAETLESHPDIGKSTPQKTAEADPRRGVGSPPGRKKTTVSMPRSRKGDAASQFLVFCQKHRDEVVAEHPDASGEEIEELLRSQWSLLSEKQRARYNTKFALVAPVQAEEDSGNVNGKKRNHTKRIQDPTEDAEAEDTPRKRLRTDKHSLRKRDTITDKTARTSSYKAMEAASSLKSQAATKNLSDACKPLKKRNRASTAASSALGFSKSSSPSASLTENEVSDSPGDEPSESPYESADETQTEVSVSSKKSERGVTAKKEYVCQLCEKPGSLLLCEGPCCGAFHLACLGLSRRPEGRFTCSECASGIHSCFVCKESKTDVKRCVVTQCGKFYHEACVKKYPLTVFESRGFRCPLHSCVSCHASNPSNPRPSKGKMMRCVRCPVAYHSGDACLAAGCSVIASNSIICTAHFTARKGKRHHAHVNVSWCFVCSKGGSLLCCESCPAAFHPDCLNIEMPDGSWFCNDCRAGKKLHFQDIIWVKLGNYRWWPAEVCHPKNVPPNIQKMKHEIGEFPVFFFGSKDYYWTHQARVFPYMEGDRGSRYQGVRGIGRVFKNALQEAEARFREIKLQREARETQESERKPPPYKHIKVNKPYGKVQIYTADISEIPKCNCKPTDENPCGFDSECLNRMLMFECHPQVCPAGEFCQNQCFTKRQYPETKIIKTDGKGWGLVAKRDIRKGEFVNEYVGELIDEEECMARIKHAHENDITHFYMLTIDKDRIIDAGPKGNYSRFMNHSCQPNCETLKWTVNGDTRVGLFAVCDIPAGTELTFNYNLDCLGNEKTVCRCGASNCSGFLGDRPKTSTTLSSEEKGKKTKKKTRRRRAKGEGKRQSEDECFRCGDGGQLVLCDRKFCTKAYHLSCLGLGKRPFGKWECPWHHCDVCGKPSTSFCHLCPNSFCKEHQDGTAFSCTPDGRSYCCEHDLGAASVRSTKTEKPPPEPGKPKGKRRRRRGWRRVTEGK
Active and inactive are the calls of the source.
Could you please pick one outcome from this set? active, inactive

Please share the test call associated with CCCOc1ccc(-c2nc(SCc3ccccc3)[nH]c(=O)c2C#N)cc1OC .
inactive

Hi, do you know how COc1ccc(-c2csc(N(CCCN(C)C)C(=O)c3ccccc3Cl)n2)cc1 came out in this test?
inactive

Could you please tell me the result logged for CN(C1=C(NC(=O)c2ccccc2)C(=O)c2ccccc2C1=O)C1CCS(=O)(=O)C1 (stereo unspecified) in this assay?
active

What is the recorded call for this compound in the test? O=C1Nn2c(nc3c(c2=O)CCCC3)/C1=N/Nc1cccc(C(F)(F)F)c1
inactive

Hi, do you know how CCOC(=O)CCCCC(=O)c1[nH]c(O)nc1CSc1nc(C)cc(O)n1 came out in this test?
active

Could you check what this test reported for CNCc1ccccc1OCc1ccccc1F ?
inactive

---

target: Heat shock protein HSP 90-alpha (Homo sapiens, UniProt P07900); format: functional, organism-based
The source made the active and inactive calls.
Field: AC50. Provide a value for each of the compounds that follow.

Data request, read-out AC50, for Cc1c(/N=C/c2cc(Br)cc(Br)c2O)cccc1C(=O)O
3.56 µM (active)

Record request: AC50 value, item CCCCCCCCCC[N+](C)(C)CC/C=C1/c2ccccc2Sc2ccc(Cl)cc21
8.12 µM (active)

Suppose we examine the compound CC(=O)Nc1ccc2c(c1)Cc1cc(N3C(=O)C=CC3=O)ccc1-2 ; what AC50 value has been reported?
0.68 µM (active)

Value lookup for AC50; key = Cc1ccc(C(=O)N2CCN(c3ccccc3Cl)CC2)cc1[N+](=O)[O-]
4.18 µM (active)

Which AC50 value belongs to COc1ccc(Nc2cnn(-c3nc4ccccc4s3)c(=O)c2Cl)cc1 ?
3.21 µM (active)

Record request: AC50 value, item O=Cc1ccc(O)c2ncccc12
0.552 µM (active)

Need AC50 of CCCNC(=O)c1nnsc1[S+]([O-])c1ccc(Cl)cc1 (configuration not stated) , thanks.
2.2 µM (active)

---

biological target: Induced myeloid leukemia cell differentiation protein Mcl-1 (Homo sapiens); type: functional
Sequence (Q07820 whole entry): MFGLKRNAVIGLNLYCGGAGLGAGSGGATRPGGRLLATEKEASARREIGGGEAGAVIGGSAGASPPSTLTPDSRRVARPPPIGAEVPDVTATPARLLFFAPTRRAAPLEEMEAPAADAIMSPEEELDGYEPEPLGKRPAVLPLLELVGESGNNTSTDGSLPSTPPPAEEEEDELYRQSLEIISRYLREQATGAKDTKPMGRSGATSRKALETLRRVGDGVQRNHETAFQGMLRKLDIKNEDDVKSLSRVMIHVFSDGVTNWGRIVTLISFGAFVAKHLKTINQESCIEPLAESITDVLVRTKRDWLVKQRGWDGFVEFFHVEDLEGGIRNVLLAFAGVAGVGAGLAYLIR
Calls of active or inactive are those of the source.
Would you mind telling me the reported IC50 of each entry?

Tell me the measured IC50 of O=C(NCCO)Nc1ccc2nc(-c3ccco3)c(-c3ccco3)nc2c1 , please.
0.579 µM (active)

Could you tell me which IC50 is on file for CC1CCc2c(sc(Nc3nc4c(F)cccc4s3)c2C(N)=O)C1 (configuration not stated) ?
3.83 µM (active)

Recorded IC50 of CCN(CC)Cc1cc(O)c(CN(CC)CC)cc1O , please.
1.58 µM (active)

Sample O=C1NC(=S)N/C1=C/c1cccn1-c1ccc([N+](=O)[O-])cc1 — what was its IC50?
4.63 µM (not active)

Please look up its IC50: CCS(=O)(=O)N1CCN(C(C)CCc2ccccc2)CC1 (configuration not stated)
6 µM (not active)

Tell me the measured IC50 of CNCc1ccccc1OCc1ccccc1F , please.
0.557 µM (active)

For the compound Cc1nnc(Sc2cc(NCCO)c([N+](=O)[O-])c3nonc23)s1 , what IC50 is on record?
6.12 µM (active)

---

target: 26S proteasome non-ATPase regulatory subunit 14 (Homo sapiens, UniProt O00487); experiment: inhibition of proteasome subunit RPN11 – biochemical, fluorescence polarization, uHTS hits, confirmation (AID 602368); format: functional
Sequence (O00487 whole entry): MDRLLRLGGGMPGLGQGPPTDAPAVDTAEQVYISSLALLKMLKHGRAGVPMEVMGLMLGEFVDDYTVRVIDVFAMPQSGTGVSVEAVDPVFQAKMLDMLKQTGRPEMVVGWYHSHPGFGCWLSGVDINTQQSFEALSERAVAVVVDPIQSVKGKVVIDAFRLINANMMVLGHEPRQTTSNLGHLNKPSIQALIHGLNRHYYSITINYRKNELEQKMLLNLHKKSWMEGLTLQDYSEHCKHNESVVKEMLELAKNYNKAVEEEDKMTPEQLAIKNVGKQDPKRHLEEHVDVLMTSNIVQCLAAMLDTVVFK
The source made the active and inactive calls.
What IC50 was measured for each of the following?

Form field: reported IC50 of Cc1[nH]c2ccccc2c1/C=C/C(=O)c1ccncc1
38.8 µM (active)

Could you tell me which IC50 is on file for COc1ccc2nc3c(O)n(/N=C/c4ccc(OC)c(CN5CCCC5)c4)c(C)nc-3c2c1 ?
13 µM (active)

So what's the measured IC50 for this one? O=C(CSc1nc(O)c2c(C(F)(F)F)cc(-c3cccs3)nc2n1)Nc1ccc(F)c(F)c1
42.7 µM (active)

I'd like to know its IC50. The compound in question is O=Cc1cn(-c2ccccc2)nc1-c1cc2cc(O)ccc2oc1=O
19.4 µM (active)

---

Can you tell me EC50 for the items I'm about to list?
biological target: Peroxisome proliferator-activated receptor gamma/Nuclear receptor coactivator 3 (Homo sapiens); assay type: functional;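 note: agonist potency for raising coactivator recruitment to the receptor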
Sequence (P37231 whole entry): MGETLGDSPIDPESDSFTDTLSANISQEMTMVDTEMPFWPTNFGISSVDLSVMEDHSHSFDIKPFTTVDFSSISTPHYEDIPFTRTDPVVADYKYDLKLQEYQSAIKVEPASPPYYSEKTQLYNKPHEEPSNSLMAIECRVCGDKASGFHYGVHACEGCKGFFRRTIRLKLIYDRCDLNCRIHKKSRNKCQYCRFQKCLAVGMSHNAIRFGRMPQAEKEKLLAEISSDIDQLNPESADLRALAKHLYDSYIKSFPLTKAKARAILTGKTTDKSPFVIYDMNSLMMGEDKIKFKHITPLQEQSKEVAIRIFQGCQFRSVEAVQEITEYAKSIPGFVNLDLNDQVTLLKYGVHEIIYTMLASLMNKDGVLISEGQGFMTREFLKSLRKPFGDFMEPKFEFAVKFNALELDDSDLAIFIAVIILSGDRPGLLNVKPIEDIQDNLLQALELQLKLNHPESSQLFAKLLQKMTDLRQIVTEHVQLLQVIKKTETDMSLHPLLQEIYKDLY
Sequence (Q9Y6Q9 whole entry, further chain): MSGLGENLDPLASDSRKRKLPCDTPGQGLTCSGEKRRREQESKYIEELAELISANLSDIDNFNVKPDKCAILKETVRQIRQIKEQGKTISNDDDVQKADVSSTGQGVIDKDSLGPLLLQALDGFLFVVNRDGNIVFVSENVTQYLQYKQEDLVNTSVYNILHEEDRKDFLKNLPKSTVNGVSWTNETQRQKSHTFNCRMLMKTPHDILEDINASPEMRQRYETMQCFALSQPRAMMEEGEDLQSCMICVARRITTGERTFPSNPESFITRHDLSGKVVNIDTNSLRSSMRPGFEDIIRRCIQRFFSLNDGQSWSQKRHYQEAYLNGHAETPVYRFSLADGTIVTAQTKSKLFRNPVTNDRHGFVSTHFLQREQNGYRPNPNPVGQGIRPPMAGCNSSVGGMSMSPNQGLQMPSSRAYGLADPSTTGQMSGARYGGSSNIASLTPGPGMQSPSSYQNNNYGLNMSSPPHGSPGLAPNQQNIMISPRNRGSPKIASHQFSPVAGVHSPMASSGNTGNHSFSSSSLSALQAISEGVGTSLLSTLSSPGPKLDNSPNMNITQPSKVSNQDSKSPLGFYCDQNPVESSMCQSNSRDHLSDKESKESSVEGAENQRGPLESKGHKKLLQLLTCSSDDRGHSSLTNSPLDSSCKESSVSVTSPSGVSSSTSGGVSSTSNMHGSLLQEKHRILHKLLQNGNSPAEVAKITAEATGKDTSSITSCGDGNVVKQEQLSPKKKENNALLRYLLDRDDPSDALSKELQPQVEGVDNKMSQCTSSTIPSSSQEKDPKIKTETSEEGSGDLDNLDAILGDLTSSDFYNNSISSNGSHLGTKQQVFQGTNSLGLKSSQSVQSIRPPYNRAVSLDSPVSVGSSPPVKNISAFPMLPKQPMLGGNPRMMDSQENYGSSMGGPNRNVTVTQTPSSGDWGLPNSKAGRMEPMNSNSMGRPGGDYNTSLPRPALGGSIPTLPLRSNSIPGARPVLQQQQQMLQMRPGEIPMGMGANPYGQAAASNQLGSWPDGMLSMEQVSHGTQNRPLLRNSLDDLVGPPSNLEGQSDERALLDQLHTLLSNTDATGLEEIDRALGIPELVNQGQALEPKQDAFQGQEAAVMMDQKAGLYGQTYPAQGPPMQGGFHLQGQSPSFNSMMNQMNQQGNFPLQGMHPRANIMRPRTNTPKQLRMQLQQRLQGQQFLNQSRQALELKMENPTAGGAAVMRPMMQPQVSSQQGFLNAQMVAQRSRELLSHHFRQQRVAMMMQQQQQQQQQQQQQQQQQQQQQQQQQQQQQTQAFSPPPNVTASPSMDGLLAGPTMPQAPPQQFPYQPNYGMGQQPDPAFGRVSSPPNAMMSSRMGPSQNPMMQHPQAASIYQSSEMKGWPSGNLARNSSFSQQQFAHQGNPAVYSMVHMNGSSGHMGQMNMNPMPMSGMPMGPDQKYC

For the compound shown here, CCc1nnc(NS(=O)(=O)c2ccc(NC(=S)NC(=O)/C=C/c3cccs3)cc2)s1 , give the reported EC50.
> 79.4 µM (not active)

Entry under review: c1csc(Cc2nn3c(-c4n[nH]c5c4CCC5)nnc3s2)c1 . Reported EC50?
> 79.4 µM (not active)

Recorded EC50 for Cc1ccc(NC(=O)CN(C)C(=S)NC2CC2)cc1 , please?
> 79.4 µM (not active)

Need EC50, item O=C(CSc1ncnc2c1nnn2-c1ccc(F)cc1)NCc1ccco1
> 79.4 µM (not active)

Please look up its EC50: O=C(CCC1CCCN(C(=O)C2=CCCCC2)C1)N1CCN(c2ccccn2)CC1 (stereo unspecified)
> 79.4 µM (not active)

Bench note: what EC50 did O=C(Nc1nc(-c2ccc(S(=O)(=O)N3CCCCCC3)cc2)cs1)c1cccs1 show?
17.4 µM (not active)

---

Target: Aminopeptidase N (Plasmodium falciparum FcB1/Columbia, UniProt O96935)
Sequence (O96935 whole entry): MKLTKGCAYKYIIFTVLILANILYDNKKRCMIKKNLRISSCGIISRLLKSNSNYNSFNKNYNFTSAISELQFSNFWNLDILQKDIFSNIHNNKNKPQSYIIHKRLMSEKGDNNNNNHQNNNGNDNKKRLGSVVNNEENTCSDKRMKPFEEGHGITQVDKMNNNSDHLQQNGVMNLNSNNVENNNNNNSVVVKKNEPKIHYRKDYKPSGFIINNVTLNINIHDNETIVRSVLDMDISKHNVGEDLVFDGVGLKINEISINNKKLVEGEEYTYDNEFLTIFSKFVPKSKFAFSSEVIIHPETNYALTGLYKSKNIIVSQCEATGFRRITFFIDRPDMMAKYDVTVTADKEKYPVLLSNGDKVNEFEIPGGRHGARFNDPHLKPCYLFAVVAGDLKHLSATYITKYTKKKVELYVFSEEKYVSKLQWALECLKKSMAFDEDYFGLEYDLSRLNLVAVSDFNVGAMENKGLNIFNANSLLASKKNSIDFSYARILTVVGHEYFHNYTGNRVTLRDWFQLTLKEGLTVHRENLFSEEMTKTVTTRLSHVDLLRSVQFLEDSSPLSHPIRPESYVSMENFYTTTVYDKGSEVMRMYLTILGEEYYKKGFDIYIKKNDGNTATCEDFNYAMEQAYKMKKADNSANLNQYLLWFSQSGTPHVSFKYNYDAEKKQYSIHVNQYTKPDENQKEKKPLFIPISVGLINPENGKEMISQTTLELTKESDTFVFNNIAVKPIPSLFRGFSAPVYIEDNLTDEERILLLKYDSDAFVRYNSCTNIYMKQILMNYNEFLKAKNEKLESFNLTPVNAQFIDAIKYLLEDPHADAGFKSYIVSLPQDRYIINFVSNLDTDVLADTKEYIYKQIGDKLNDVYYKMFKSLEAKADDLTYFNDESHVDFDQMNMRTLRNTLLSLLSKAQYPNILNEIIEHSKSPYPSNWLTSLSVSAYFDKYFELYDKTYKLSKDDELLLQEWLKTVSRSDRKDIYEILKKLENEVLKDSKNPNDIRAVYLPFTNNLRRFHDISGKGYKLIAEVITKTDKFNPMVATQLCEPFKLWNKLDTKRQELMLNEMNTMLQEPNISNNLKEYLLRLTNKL
Assay: P. falciparum M1AAP inhibitors, biochemical, fluorogenic H-Leu-NHMec substrate, 1536-well (AID 1445)
Parameters: species or system Plasmodium falciparum 3D7, 3D7
Active and inactive are the calls of the source.
I'd appreciate it if you could supply IC50 values for the items below.

Suppose we examine the molecule CC1(C)OC2OC(C(=O)N/N=C/c3cc(Br)ccc3O)C3OC(C)(C)OC3C2O1 (stereo unspecified) ; what IC50 value has been reported?
51.7 µM (active)

Can you look up the measured IC50 of Cc1ccc2c(c1)c1nnc(SCC(=O)Nc3cccc(Cl)c3C)nc1n2CC(=O)O for me?
8.42 µM (active)

If you can, please state the reported IC50 value of CCc1nnc(NS(=O)(=O)c2ccc(NC(=S)NC(=O)/C=C/c3cccs3)cc2)s1 .
79.4 µM (active)

Can you share its IC50? I mean this molecule: Cc1csc(NC(=O)COCC(=O)O)c1-c1nc2ccccc2s1
17.1 µM (active)

Returns the measured IC50 for the input molecule. Input: C=CCN1C(=O)/C(=c2\sc3nc(=O)c(Cc4ccccc4Cl)nn3c2=O)c2ccccc21
57.4 µM (active)

Which IC50 reading was recorded for the molecule CCCSc1nnc(NC(=O)c2nc(SC)ncc2Cl)s1 ?
109 µM (active)
